# Tested on: Lewy body α-Synuclein (human, UniProt P37840 1-140)
# Method: IHC, human amygdala; OD of Lewy bodies / OD of tissue
Result type: LB Discrimination Index
Answer using only a numeral; do not append any unit.

Quick one: give measured LB Discrimination Index for 9047 (antibody, IgG2b, V domains shown) VH: EVQLVESGGGLVKPGGSLKLSCGASGFTFSSFAMSWVRQTPEKRLEWVATISNGGSYTYYPDSVKGRFTISRDNAKNTLYLRMSSLRSEDTALYYCTRRSSTRGFFDYWGPGTTLTVSS VL: QIFLTQSPAIMSASPGEKVTMTCSASSSVTYMYWYQQNPGSSPRLLIYDSSKLASGVPVRFSGSGSGTSYSLTISRMEAEDATTYYCQQWKSYPPTFGTGTKLDLK
2.46

Quick one: give measured LB Discrimination Index for 9003 (antibody, IgG1, V domains shown) VH: EVQLVESGGGLVQPKGSLKLSCAASGFTFNTYAMHWVRQAPGKGLEWVARIRSESNNFATYYADSVKDSFTISRDDSQSMLYLQMNNLKTEDTAVYYCVRGGLSPFDYWGQGTTLTVSS VL: QIVLTQSPAIMSASPGEKVTMTCSASSSVSYMHWYQQKSGTSPKRWIYDTSKLASGVPARFSGSGSGTSYSLTINSMEAEDAATYYCQQWSRNPPTFGGGTKLEIK
1.94

Quick one: give measured LB Discrimination Index for 9071 (antibody, IgG1, V domains shown) VH: EVHLVESGGGLVQPKGSLKLSCAASGFTFNTYAMHWVRQAPGKGLEWVARIRNKSNNYATYYADSVKDRFTISRDDSQSMLFLQMDNLKTEDTAIYYCVRGGLSPFDYWGQGTTLTVSS VL: QIVLTQSPAIMSASPGEKVTMTCSASSSVTYMHWYQQKSGTSPKRWIYDTSKLASGVPARFSGSGSGTSYSLTISSMEAEDAATYYCQQWSSNPPTFGGGTKLEIR
1.89

Quick one: give measured LB Discrimination Index for 9009 (antibody, IgG1, V domains shown) VH: EVQLVESGGGLVQPKGSLKLSCAASGFTFNTYAMHWVRQAPGKGLEWVARIRSESNNFATYYADSVKDSFTISRDDSQSMLYLQMNNLKTEDTAVYYCVRGGLSPFDYWGQGTTLTVSS VL: QIVLTQSPAIMSASPGEKVTMTCSASSSVSYMHWYQQKSGTSPKRWIYDTSKLASGVPARFSGSGSGTSYSLTINSMEAEDAATYYCQQWSRNPPTFGGGTKLEIK
1.82

Quick one: give measured LB Discrimination Index for 9035 (antibody, IgG2b, V domains shown) VH: EVQLVESGGGLVKPGGSLKLSCGASGFTFSSFAMSWVRQTPEKRLEWVATISNGGSYTYYPDSVQGRFTISRDNAKNTLYLRMSSLRSEDTAMYYCARRSSTRGFFDYWGHGTTLTVSS VL: QIFLTQSPAIMSASPGEKVTMTCSASSSVSYMYWYQQKPGSSPRLLIYDSSKLASGVPVQFSGSGSGTSYSLTISRMEAEDAATYYCQQWRSYPPTFGAGTKLELK
1.9

Quick one: give measured LB Discrimination Index for 9005 (antibody, IgG1, V domains shown) VH: EVMLVESGGGLVKSGGSLKLSCAASGFTFSSYAMSWVRQTPEKRLEWVATISTGGGYTYYPDSVKGRFTISRDNAKNTLYLQMSSLRSEDTAMYYCVRRGTARGYFDVWGAGTTVTVSS VL: QIVLTQSPAIMSASPGEKVTMTCSASSSVSYMYWYQQKPESSPRLLIYDTSNLASGVPVRFSGSGSGTSYFLTISRMEAEDAATYYCQQWKTYPPTFGGGTKLEIK
1.68

Quick one: give measured LB Discrimination Index for 9100 (antibody, IgG2b, V domains shown) VH: EVQLVESGGVLVKPGGSLKLSCAASGFTFSSFAMSWVRQTPEKRLEWVATISNGGSYTYYPDSVKGRFTISRDNAKNTLYLRMSSLRSEDTAMYYCVRRATTRGYFDYWGQGTTLTVSS VL: QIFLTQSPAIMSASPGEKVTMTCSASSSVSYMYWYQQKPGSSPRLLIYDSSKLASGVPVQFSGSGSGTSYSLTISRMEAEDAATYYCQQWRSYPPTFGAGTKLELK
1.62

Quick one: give measured LB Discrimination Index for 9014 (antibody, IgG1, V domains shown) VH: EVQLVESGGGLVQPKGSLKLSCAASGFTFNTYAMHWVRQAPGKGLEWVARIRSESNNFATYYADSVKDSFTISRDDSQSMLYLQMNNLKTEDTAVYYCVRGGLSPFDYWGQGTTLTVSS VL: QIVLTQSPAIMSASPGEKVTMTCSASSSVSYMHWYQQKSGTSPKRWIYDTSKLASGVPARFSGSGSGTSYSLTINSMEAEDAATYYCQQWSRNPPTFGGGTKLEIK
1.87

Quick one: give measured LB Discrimination Index for 9004 (antibody, IgG2b, V domains shown) VH: EVHLVESGGGLVQPKGSLKLSCAASGFTFNTYAMHWVRQAPGKGLEWVARIRSKSNNYATYYADSVKDRFTISRDDSQSMLYLQMNNLKTEDTAMYYCVRGGLSPFDYWGQGTTLTVSS VL: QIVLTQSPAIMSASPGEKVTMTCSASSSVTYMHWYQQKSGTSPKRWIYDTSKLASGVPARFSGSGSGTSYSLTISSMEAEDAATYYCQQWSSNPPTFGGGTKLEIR
1.91

Quick one: give measured LB Discrimination Index for 9099 (antibody, IgG2b, V domains shown) VH: EVQLVESGGVLVKPGGSLKLSCAASGFTFSSFAMSWVRQTPEKRLEWVATISNGGSYTYYPDSVKGRFTISRDNAKNTLYLRMSSLRSEDTAMYYCVRRATTRGYFDYWGQGTTLTVSS VL: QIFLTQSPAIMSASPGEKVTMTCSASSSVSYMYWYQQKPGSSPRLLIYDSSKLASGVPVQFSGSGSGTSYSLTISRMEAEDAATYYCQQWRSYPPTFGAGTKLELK
1.47
